meta.source: patent US5317019A

System: TNF production by human monocytes
assayNotes: In vitro TNF production by LPS-stimulated human monocytes (ELISA)
Assay type: cell-based
conditionDescription: Homo sapiens, Monocyte; Table B; LPS 50 ng/ml, 24 h; read-out: IC50, LPS induced TNF human monocyte data
readoutKind: IC50 (µM)

A: COc1ccc(-c2nc3n(c2-c2ccncc2)CCC3)cc1
B: Fc1ccc(-c2nc3n(c2-c2ccncc2)CCC3)cc1
C: CSc1ccc(-c2nc3n(c2-c2ccncc2)CCC3)cc1
Ranking field: IC50; order: falling. Provide your answer as the labels ordered per the instruction.
C, A, B
